Origin of measurements: patent US20250176599A1

measurement-description: Sensory evaluation of aqueous solution V containing 1-octen-3-ol 10 ppb: off-flavor intensity and masking component intensity
particulars: 5 ppm added, 1-octen-3-ol 10 ppb, average score 0-4
Please go through the items and note down their Off-Flavor Intensity.
Hi! Could you send only the number? It should be in points, unit omitted.

Record summary for `CCCC(=O)C(C)=O` : reported Off-Flavor Intensity = 0.9

Record summary for `C=C(C)[C@@H]1CCC2=CC(=O)C[C@@H](C)[C@]2(C)C1` : reported Off-Flavor Intensity = 0.9

Record summary for `CCCCCCCC/C=C\CCCCCCCC(=O)O` : reported Off-Flavor Intensity = 1.8

Record summary for C=CC(C)(CCC=C(C)C)OC(=O)CCC (stereo not shown) [Linalyl Butyrate, linalyl butyrate] : reported Off-Flavor Intensity = 0.8

====

measurement-description: Sensory evaluation of aqueous solution I containing (E)-2-nonenal 1 ppb: off-flavor intensity and masking component intensity
particulars: 10 ppb added, average panel score
Please go through the items and note down their Masking Component Intensity.
Simply state the number, no unit and no words.

Record summary for CC1CCC(C(C)C)C(OCC(O)CO)C1 (stereo not drawn) : reported Masking Component Intensity = 0.6

Record summary for CC(=O)/C(C)=C/C1C(C)=CCCC1(C)C (stereo not drawn) : reported Masking Component Intensity = 2.5

Record summary for C=CC(C)(O)CCC=C(C)CCC=C(C)C (stereo not drawn) : reported Masking Component Intensity = 0.6

Record summary for CC(O)CC(=O)OC1CC(C)CCC1C(C)C (stereo not drawn) [menthyl 3-hydroxybutyrate] : reported Masking Component Intensity = 0.9

Record summary for CC1CCC(C(C)C)C(OCCO)C1 (stereo not drawn) : reported Masking Component Intensity = 0.8

Record summary for `CC(C)C=C(C=O)c1ccccc1` : reported Masking Component Intensity = 0.9

====

measurement-description: Sensory evaluation of aqueous solution II containing (E)-2-octenal 10 ppb: off-flavor intensity and masking component intensity
particulars: 100 ppb added, (E)-2-octenal 10 ppb, average score 0-4
readout-kind: Off-Flavor Intensity (points)
Hi! Could you send only the number? It should be in points, unit omitted.

Record summary for CCCCCCCC/C=C\CCCCCCCC(=O)O [Oleic Acid, oleic acid] : reported Off-Flavor Intensity = 1.9

Record summary for C=CC(C)(CCC=C(C)C)OC(=O)CCC (stereo not drawn) [Linalyl Butyrate, linalyl butyrate] : reported Off-Flavor Intensity = 1.4

Record summary for CCCC(=O)C(C)=O [2,3-Hexanedione, 2,3-hexanedione] : reported Off-Flavor Intensity = 2.0

Record summary for CCC(=O)/C=C/C1C(C)=CCCC1(C)C (stereo not drawn) [α-Methyl Ionone, α-methyl ionone] : reported Off-Flavor Intensity = 0.4

Record summary for C/C=C/C(=O)C1=C(C)C=CCC1(C)C [β-Damascenone, β-damascenone] : reported Off-Flavor Intensity = 0.8

Record summary for O=C1CCCCCCCCCCCC(=O)OCCO1 [1,4-Dioxacycloheptadecan-5,17-Dione, 1,4-dioxacycloheptadecan-5,17-dione] : reported Off-Flavor Intensity = 0.6

Record summary for CC(=O)/C=C/C1=C(C)CCCC1(C)C [β-Ionone, β-ionone] : reported Off-Flavor Intensity = 0.8

Record summary for C=C(C)[C@@H]1CCC2=CC(=O)C[C@@H](C)[C@]2(C)C1 [Nootkatone, nootkatone] : reported Off-Flavor Intensity = 1.9

Record summary for CC(=O)/C=C/C1C(C)=CCCC1(C)C (stereo not drawn) [α-Ionone, α-ionone] : reported Off-Flavor Intensity = 0.8

====

Please go through the items and note down their Off-Flavor Intensity.
measurement-description: Sensory evaluation of aqueous solution III containing 1-octen-3-one 1 ppb: off-flavor intensity and masking component intensity
particulars: 10 ppm added, average panel score
Simply state the number, no unit and no words.

Record summary for CC(O)CC(=O)OC1CC(C)CCC1C(C)C (centres unmarked) [menthyl 3-hydroxybutyrate] : reported Off-Flavor Intensity = 2.0

Record summary for `CC(C)C=C(C=O)c1ccccc1` : reported Off-Flavor Intensity = 1.6

Record summary for C=CC(C)(O)CCC=C(C)CCC=C(C)C (centres unmarked) : reported Off-Flavor Intensity = 0.4

Record summary for CC1CCC(C(C)C)C(OCCO)C1 (centres unmarked) : reported Off-Flavor Intensity = 2.3

Record summary for CC1CCC(C(C)C)C(OCC(O)CO)C1 (centres unmarked) : reported Off-Flavor Intensity = 2.3

====

measurement-description: Sensory evaluation of aqueous solution II containing (E)-2-octenal 10 ppb: off-flavor intensity and masking component intensity
particulars: 50 ppm added, average panel score
readout-kind: Off-Flavor Intensity
Simply state the number, no unit and no words.

Record summary for CC(O)CC(=O)OC1CC(C)CCC1C(C)C (stereo not shown) [menthyl 3-hydroxybutyrate] : reported Off-Flavor Intensity = 1.1

Record summary for CC1CCC(C(C)C)C(OCCO)C1 (stereo not shown) [2-menthoxyethanol] : reported Off-Flavor Intensity = 1.5

Record summary for CC1CCC(C(C)C)C(OCC(O)CO)C1 (stereo not shown) [3-menthoxypropan-1,2-diol] : reported Off-Flavor Intensity = 1.5

Record summary for CC(C)C=C(C=O)c1ccccc1 [4-methyl-2-phenyl-2-pentenal] : reported Off-Flavor Intensity = 0.6

====

Please go through the items and note down their Off-Flavor Intensity.
measurement-description: Sensory evaluation of aqueous solution III containing 1-octen-3-one 1 ppb: off-flavor intensity and masking component intensity
particulars: 10 ppb added, 1-octen-3-one 1 ppb, average score 0-4
Hi! Could you send only the number? It should be in points, unit omitted.

Record summary for `CC(=O)/C=C/C1=C(C)CCCC1(C)C` : reported Off-Flavor Intensity = 1.6

Record summary for `CCCC(=O)C(C)=O` : reported Off-Flavor Intensity = 3.6

Record summary for CCC(=O)/C=C/C1C(C)=CCCC1(C)C (stereo not drawn) : reported Off-Flavor Intensity = 1.3

Record summary for C=CC(C)(CCC=C(C)C)OC(=O)CCC (stereo not drawn) [Linalyl Butyrate, linalyl butyrate] : reported Off-Flavor Intensity = 2.3

Record summary for `C/C=C/C(=O)C1=C(C)C=CCC1(C)C` : reported Off-Flavor Intensity = 1.4

Record summary for `O=C1CCCCCCCCCCCC(=O)OCCO1` : reported Off-Flavor Intensity = 1.0

Record summary for CC(=O)/C=C/C1C(C)=CCCC1(C)C (stereo not drawn) : reported Off-Flavor Intensity = 1.9

Record summary for `CCCCCCCC/C=C\CCCCCCCC(=O)O` : reported Off-Flavor Intensity = 3.5

Record summary for `C=C(C)[C@@H]1CCC2=CC(=O)C[C@@H](C)[C@]2(C)C1` : reported Off-Flavor Intensity = 2.3

====

measurement-description: Sensory evaluation of aqueous solution VI containing 1,5-octadien-3-ol 10 ppb: off-flavor intensity and masking component intensity
particulars: 100 ppb added; aqueous solution VI, 1,5-octadien-3-ol 10 ppb; average score 0-4
Method: In ion-exchanged water, each degradation component was added to achieve the concentrations listed in Table 1, and aqueous solutions I to VI containing these degradation components were prepared. […] Also, the intensity of the masking components (impact on the flavor of the food and/or beverage itself) was absolutely evaluated according to the following evaluation criteria. […]
Please go through the items and note down their Off-Flavor Intensity.
Hi! Could you send only the number? It should be in points, unit omitted.

Record summary for CCC(=O)/C=C/C1C(C)=CCCC1(C)C (stereo not drawn) : reported Off-Flavor Intensity = 0.6

Record summary for `C/C=C/C(=O)C1=C(C)C=CCC1(C)C` : reported Off-Flavor Intensity = 0.0

Record summary for CC(=O)/C=C/C1C(C)=CCCC1(C)C (stereo not drawn) : reported Off-Flavor Intensity = 0.8

Record summary for `C=C(C)[C@@H]1CCC2=CC(=O)C[C@@H](C)[C@]2(C)C1` : reported Off-Flavor Intensity = 1.5

Record summary for `CC(=O)/C=C/C1=C(C)CCCC1(C)C` : reported Off-Flavor Intensity = 0.8

Record summary for C=CC(C)(CCC=C(C)C)OC(=O)CCC (stereo not drawn) [Linalyl Butyrate, linalyl butyrate] : reported Off-Flavor Intensity = 1.3

Record summary for `O=C1CCCCCCCCCCCC(=O)OCCO1` : reported Off-Flavor Intensity = 0.9

Record summary for `CCCC(=O)C(C)=O` : reported Off-Flavor Intensity = 2.6

Record summary for `CCCCCCCC/C=C\CCCCCCCC(=O)O` : reported Off-Flavor Intensity = 1.9

====

measurement-description: Sensory evaluation of aqueous solution III containing 1-octen-3-one 1 ppb: off-flavor intensity and masking component intensity
particulars: 100 ppt added, average panel score
readout-kind: Masking Component Intensity
Simply state the number, no unit and no words.

Record summary for C=CC(C)(O)CCC=C(C)CCC=C(C)C (stereo not drawn) : reported Masking Component Intensity = 0.3

Record summary for CC(=O)/C(C)=C/C1C(C)=CCCC1(C)C (stereo not drawn) : reported Masking Component Intensity = 0.9

Record summary for CC1CCC(C(C)C)C(OCC(O)CO)C1 (stereo not drawn) : reported Masking Component Intensity = 0.1

Record summary for CC1CCC(C(C)C)C(OCCO)C1 (stereo not drawn) : reported Masking Component Intensity = 0.6

Record summary for `CC(C)C=C(C=O)c1ccccc1` : reported Masking Component Intensity = 0.5

Record summary for CC(O)CC(=O)OC1CC(C)CCC1C(C)C (stereo not drawn) [menthyl 3-hydroxybutyrate] : reported Masking Component Intensity = 0.3
